- System: A498 renal
- procedure_details: NCI tumour cell line growth inhibition, 48 h
Quick reference for TGI among some compounds
// note: answer is a bare numeric in µM

{"compound": "CCCN(CCCC(NC(C)=O)C(=O)NCc1ccccc1)C(=O)N(CCCl)N=O (stereo not given)", "experimental_result": 31.1}

We next turn to a different compound, shown below.
IN: What measured TGI goes with CN(C)CCNC(=O)c1cccc2c(NCCN(C)C)c3ccccc3nc12 ?
OUT: 4.74

* * *

- Tested on: IGROV1 ovarian
- procedure_details: NCI tumour cell line growth inhibition, 48 h
Where a SMILES comes first, the peptide text is derived from it. The star is where a group is joined. Boc = CC(C)(C)OC(=O)*
experimental_endpoint: TGI

IN: What measured TGI goes with O=C1CC2(c3ccccc3)ON=C(c3ccccc3)N2c2ccccc2N1 (stereo not given) ?
OUT: > 100 µM

IN: What do you get for COc1ccc2c(c1)N1CCc3cc(OC)c(OC)cc3C1C2 (stereo not given) ?
OUT: > 100 µM

IN: What do you get for COC(=O)C(Cc1c[nH]c2ccccc12)NC(=O)C(Cc1c[nH]c2ccccc12)NC(=O)C(Cc1c[nH]c2ccccc12)NC(=O)C(Cc1c[nH]c2ccccc12)NC(=O)C(Cc1c[nH]c2ccccc12)NC(=O)C(Cc1c[nH]c2ccccc12)NC(=O)OC(C)(C)C (stereo not given) (Boc-WWWWWW-OMe; configuration not given here) ?
OUT: > 100 µM

IN: What do you get for CCCSc1ccc2[nH]c(N3C(=O)/C(=C/c4ccco4)N=C3c3ccccc3)cc2c1 ?
OUT: > 50 µM

* * *

- Tested on: SF-268 CNS
- procedure_details: NCI tumour cell line growth inhibition, 48 h
Quick reference for TGI among some compounds

Use these answered entries as a reference point.
{"compound": "CC[C@H](O)[C@H](C)C=C1SCCCS1", "test_system": "SF-268 CNS", "experimental_result": "> 100 µM"}
{"compound": "NC(N)=N/N=C/c1nc2n(c1[N+](=O)[O-])CCS2", "test_system": "SF-268 CNS", "experimental_result": "> 100 µM"}
{"compound": "C[N-]c1nnnn1C.[Au+].c1ccc([PH+](c2ccccc2)c2ccccc2)cc1", "test_system": "SF-268 CNS", "experimental_result": "15.4 µM"}
{"compound": "CC(C)(C)N=NNc1cn(C2OC(CO)C(O)C2O)c(=O)[nH]c1=O (configuration not stated)", "test_system": "SF-268 CNS", "experimental_result": "> 100 µM"}
{"compound": "CCCSc1ccc2[nH]c(N3C(=O)/C(=C/c4ccco4)N=C3c3ccccc3)cc2c1", "test_system": "SF-268 CNS", "experimental_result": "> 50 µM"}
{"compound": "COc1ccc(OC)c2c1CC(C(=O)O)(C(=O)O)CC2=O", "test_system": "SF-268 CNS", "experimental_result": "> 100 µM"}

IN: What measured TGI goes with COc1ccc(OC)c(/C(C)=N/NC(N)=S)c1 ?
OUT: > 100 µM

IN: What do you get for CCC[CH2][Sn]([CH2]CCC)([CH2]CCC)[O]c1ccc(Cl)cc1Cl ?
OUT: 0.301 µM

IN: What do you get for CCCCC(C#N)(OP1(=O)OC(c2ccccc2)C(C)N1C)c1ccccc1 (configuration not stated) ?
OUT: 35.9 µM

IN: What do you get for Nc1ccccc1C(=O)CC1OC(=O)c2ccccc21 (configuration not stated) ?
OUT: > 100 µM

IN: What do you get for C[C@]12CC[C@H]3[C@@H](CC=C4C[C@@H](N5CCCC5)CC[C@@]43C)[C@@H]1C[C@H](N1CCOCC1)[C@@H]2O ?
OUT: > 100 µM

IN: What do you get for COc1ccc(/C=N/n2cnc3c(sc(=S)n3-c3ccccc3)c2=O)cc1 ?
OUT: 38.8 µM

IN: What do you get for COc1cc2c(cc1OC)C(C(CO)CO)N(CC(O)CCl)CC2 (configuration not stated) ?
OUT: > 100 µM

IN: What do you get for CC(C)CC(NC(=O)c1cccc(O)c1O)C(=O)NCc1cc(CNC(=O)C(CC(C)C)NC(=O)c2cccc(O)c2O)cc(CNC(=O)C(CC(C)C)NC(=O)c2cccc(O)c2O)c1 (configuration not stated) ?
OUT: > 100 µM

IN: What do you get for CC(C)=CCc1c(OC(=O)c2c(C)cc(O)cc2O)cc(CO)c(CO)c1O ?
OUT: 85 µM

IN: What do you get for OCc1ccc(-c2ccc(-c3ccc(CO)o3)[se]2)o1 ?
OUT: > 100 µM

IN: What do you get for COC(=O)c1c(O)ccc2c1c1c(n2Cc2ccccc2Cl)C(=O)c2ccccc2C1=O ?
OUT: 29.4 µM

Data origin: PubChem BioAssay (NCI)
